Test system: myocardial ischemia
Assay: Artificially induced acute coronary insufficiency in an awake dog (ST-segment elevation)
Assay type: in vivo
Conditions: Canis lupus familiaris, 0.1 h, intravenous, 6 min coronary occlusion, groups of ten animals, read-out: DE20 (dose producing a mean reduction of at least 20% of the ST-segment elevation)
Measured endpoint: ED20 (µmol/kg)
Number only, in µmol/kg; omit the unit.

Q: Endpoint output: ED20 of CC(C)NCC(O)COc1cccc2ccccc12 (centres unmarked) [propranolol, reference compound] . Value?
Result: 2

Q: Endpoint output: ED20 of CNC(=O)c1cccc(Cc2c[nH]cn2)c1O.Cl [C, hydrochloride] . Value?
Result: 0.3

Q: Endpoint output: ED20 of Cc1ccc(Cc2c[nH]cn2)c(O)c1C(N)=O.Cl [K, hydrochloride] . Value?
Result: 0.32

These data points were gathered from patent US4923865A.
